// provenance: ChEMBL document CHEMBL3779805

procedure.text: Oral bioavailability in beagle dog plasma at 0.2 mg/kg by LC-MS/MS method
Assay type: ADME, organism-based, Canis lupus familiaris
measurement.type: bioavailability (%)

> print(dat)
                           molecular.string  measurement.type  val
1  COC(=O)Nc1ccc(-c2ccnc([C@H](Cc3ccccc3)NC(=O)/C=C/c3cc(Cl)ccc3-n3cnnn3)c2)cc1   bioavailability   34

1. COC(=O)Nc1ccc(-c2cc([C@H](Cc3ccccc3)NC(=O)/C=C/c3cc(Cl)ccc3-n3cnnn3)[nH]c(=O)c2)cc1
2. COC(=O)Nc1ccc(-c2cc([C@H](Cc3ccccc3)NC(=O)/C=C/c3cc(Cl)ccc3-n3cnnn3)ncn2)cc1
3. COC(=O)Nc1ccc(-c2c[nH]c([C@H](Cc3ccccc3)NC(=O)/C=C/c3cc(Cl)ccc3-n3cnnn3)n2)cc1
Rank by bioavailability (largest to smallest). Please write the labels in the order that was asked for.
2, 3, 1
(2: 28%, 3: 10%, 1: 0%)

* * *

test.target: Coagulation factor XI (Homo sapiens, UniProt P03951)
Sequence (P03951 19-387 limits assumed): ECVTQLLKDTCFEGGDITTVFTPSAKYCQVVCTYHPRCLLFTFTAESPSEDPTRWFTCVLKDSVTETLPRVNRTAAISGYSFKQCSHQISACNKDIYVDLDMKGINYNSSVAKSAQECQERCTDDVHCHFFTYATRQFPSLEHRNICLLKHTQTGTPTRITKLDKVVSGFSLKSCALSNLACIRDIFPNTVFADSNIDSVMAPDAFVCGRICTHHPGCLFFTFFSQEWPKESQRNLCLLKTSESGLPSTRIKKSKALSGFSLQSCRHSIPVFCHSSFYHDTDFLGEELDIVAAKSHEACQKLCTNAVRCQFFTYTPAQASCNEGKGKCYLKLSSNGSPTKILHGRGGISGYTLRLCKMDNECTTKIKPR
Sequence (P03951 388-625 limits assumed): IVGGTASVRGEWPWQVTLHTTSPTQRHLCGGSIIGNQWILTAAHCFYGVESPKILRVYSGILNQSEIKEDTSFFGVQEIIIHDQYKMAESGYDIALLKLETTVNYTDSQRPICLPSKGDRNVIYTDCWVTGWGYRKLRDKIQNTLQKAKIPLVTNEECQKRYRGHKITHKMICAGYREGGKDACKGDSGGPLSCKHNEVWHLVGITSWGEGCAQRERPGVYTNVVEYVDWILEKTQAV
measurement.type: Ki (nM)

> print(dat)
                                   molecule  val
1  COc1n[nH]c2ccc(-c3ccnc(C(Cc4ccccc4)NC(=O)[C@H]4CC[C@H](CN)CC4)c3)cc12 (mixture of isomers)   87
2  NC[C@H]1CC[C@H](C(=O)NC(Cc2ccccc2)c2cc(-c3ccc(N)nc3)ccn2)CC1 (mixture of isomers)   24
3  COC(=O)Nc1ccc(-c2cc([C@H](Cc3ccccc3)NC(=O)[C@H]3CC[C@H](CN)CC3)[nH]c(=O)c2)cc1  2.4
4  NC[C@H]1CC[C@H](C(=O)NC(Cc2ccccc2)c2cc(-c3ccc4[nH]nc(N)c4c3)ccn2)CC1 (mixture of isomers)   53
5  NC[C@H]1CC[C@H](C(=O)NC(Cc2ccccc2)c2cc(-c3ccc4cn[nH]c4c3)ccn2)CC1 (mixture of isomers)   87

I. NC[C@H]1CC[C@H](C(=O)NC(Cc2ccccc2)c2cc(-c3ccc4[nH]ncc4c3)ccn2)CC1 (mixture of isomers)
II. COC(=O)Nc1ccc(-c2ccnc(C(Cc3ccccc3)NC(=O)[C@H]3CC[C@H](CN)CC3)c2)cc1 (mixture of isomers)
Parameter check: reported Ki is higher for which label, I or II ? Respond using the label that marks the chosen record.
I

* * *

procedure.text: Oral bioavailability in beagle dog plasma at 0.19 mg/kg by LC-MS/MS method
Assay type: ADME, organism-based, Canis lupus familiaris
measurement.type: bioavailability (%)
Report as a plain number; the unit % is understood.

Any idea what its bioavailability is? The compound is COC(=O)Nc1ccc(-c2cc([C@H](Cc3ccccc3)NC(=O)/C=C/c3cc(Cl)ccc3-n3cnnn3)ccn2)cc1
34

* * *

System: Canis familiaris
procedure.text: Clearance in beagle dog plasma at 0.25 mg/kg, iv and 0.2 mg/kg, po administered in cassette format by LC-MS/MS method
Assay type: ADME, organism-based, Canis lupus familiaris
condition.label: in vivo
measurement.type: clearance (mL/min/kg)
Report as a plain number; the unit mL/min/kg is understood.

Any idea what its clearance is? The molecule is COC(=O)Nc1ccc(-c2ccnc([C@H](Cc3ccccc3)NC(=O)/C=C/c3cc(Cl)ccc3-n3cnnn3)c2)cc1
6.1

* * *

test.target: Coagulation factor VII (Homo sapiens)
Sequence (P08709 61-212 limits assumed): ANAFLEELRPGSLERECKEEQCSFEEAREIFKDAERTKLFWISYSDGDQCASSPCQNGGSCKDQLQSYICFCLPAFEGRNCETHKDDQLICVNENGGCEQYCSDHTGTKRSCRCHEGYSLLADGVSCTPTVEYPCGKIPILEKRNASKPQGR
Sequence (P08709 213-466 limits assumed): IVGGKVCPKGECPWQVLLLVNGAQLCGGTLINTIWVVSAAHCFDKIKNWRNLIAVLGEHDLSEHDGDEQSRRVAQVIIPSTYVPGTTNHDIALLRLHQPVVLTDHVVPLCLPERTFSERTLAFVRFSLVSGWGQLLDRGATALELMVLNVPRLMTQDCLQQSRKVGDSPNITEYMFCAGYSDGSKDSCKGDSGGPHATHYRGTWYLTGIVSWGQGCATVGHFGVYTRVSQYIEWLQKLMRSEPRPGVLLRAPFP
pKi: −log10 of the molar value.
measurement.type: pKi

Any idea what its pKi is? The molecule is COC(=O)Nc1ccc(-c2ccnc([C@H](Cc3ccccc3)NC(=O)[C@H]3CC[C@H](CN)CC3)c2)cc1
< 4.91
